SYSTEM_NAME: G5N Y383F (Homo sapiens, UniProt Q8TEQ6 1-726, Y383F)
Sequence (Q8TEQ6 1-726 Y383F): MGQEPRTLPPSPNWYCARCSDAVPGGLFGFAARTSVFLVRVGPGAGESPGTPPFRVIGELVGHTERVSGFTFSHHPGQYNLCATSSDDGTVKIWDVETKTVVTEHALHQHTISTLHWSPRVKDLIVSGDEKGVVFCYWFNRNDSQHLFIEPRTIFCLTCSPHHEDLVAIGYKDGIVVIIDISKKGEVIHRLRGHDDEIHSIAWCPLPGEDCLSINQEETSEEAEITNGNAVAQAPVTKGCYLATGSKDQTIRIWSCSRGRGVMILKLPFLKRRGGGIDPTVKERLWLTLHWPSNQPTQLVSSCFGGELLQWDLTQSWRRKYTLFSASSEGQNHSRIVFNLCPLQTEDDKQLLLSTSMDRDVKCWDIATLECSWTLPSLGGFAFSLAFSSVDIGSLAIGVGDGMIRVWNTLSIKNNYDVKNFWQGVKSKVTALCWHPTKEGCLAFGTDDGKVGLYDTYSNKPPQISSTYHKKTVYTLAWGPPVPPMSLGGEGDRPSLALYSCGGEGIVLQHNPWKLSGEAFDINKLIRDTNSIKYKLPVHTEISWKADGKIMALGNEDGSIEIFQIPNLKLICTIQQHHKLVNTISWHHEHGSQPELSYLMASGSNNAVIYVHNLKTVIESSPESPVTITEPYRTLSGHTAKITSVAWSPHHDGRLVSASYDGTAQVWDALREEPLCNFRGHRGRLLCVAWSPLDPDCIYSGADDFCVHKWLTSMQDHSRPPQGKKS
EXPERIMENTAL_DETAILS: FP
ENDPOINT: pKd
Note: pKd values are expressed as the negative base-10 logarithm of concentration in M.

What value of measured pKd is listed for GCAAUUUUUGACA (ssRNA) [U4 13-mer, FITC] ?
5.42
